Measured Kd of individual entries
target: T1, mouse TF ECD-His6 (mouse, UniProt P20352 29-251); assay: BLI (ForteBio Octet)
T1 construct: Expi293-derived; also called TF-His; mTF
Number in nM, nothing else.

Some binders with recorded Kd:
binder	unit.of.measure	Kd
25G (antibody, human IgG1, V domains shown, Human IgG1; also called antibody designated 25G) VH: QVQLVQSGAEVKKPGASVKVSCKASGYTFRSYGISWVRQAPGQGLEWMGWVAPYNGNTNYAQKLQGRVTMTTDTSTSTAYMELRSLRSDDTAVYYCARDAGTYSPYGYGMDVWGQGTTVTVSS VL: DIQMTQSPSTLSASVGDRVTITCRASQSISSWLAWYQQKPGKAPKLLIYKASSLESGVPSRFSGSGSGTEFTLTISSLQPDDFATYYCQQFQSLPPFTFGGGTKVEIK	nM	114
43D (antibody, human IgG1, V domains shown, Human IgG1; also called antibody designated 43D) VH: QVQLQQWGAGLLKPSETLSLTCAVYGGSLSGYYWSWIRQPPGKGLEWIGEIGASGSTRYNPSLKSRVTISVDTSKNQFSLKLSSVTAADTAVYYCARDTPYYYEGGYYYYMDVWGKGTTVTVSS VL: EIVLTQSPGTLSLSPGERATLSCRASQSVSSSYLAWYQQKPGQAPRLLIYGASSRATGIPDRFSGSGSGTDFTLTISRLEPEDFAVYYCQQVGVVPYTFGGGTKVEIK	nM	281

Shift focus to the following entry.
IN: Which value of Kd has been reported for 43B (antibody, human IgG1, V domains shown, Human IgG1; also called antibody designated 43B) VH: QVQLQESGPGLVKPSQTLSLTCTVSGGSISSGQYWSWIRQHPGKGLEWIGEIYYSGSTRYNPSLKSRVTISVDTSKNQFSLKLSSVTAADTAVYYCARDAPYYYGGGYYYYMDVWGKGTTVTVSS VL: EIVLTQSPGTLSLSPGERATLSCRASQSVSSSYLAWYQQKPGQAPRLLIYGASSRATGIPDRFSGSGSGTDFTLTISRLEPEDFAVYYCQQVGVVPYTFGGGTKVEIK in the records?
OUT: 161
